Target: 26S proteasome (Homo sapiens)
Sequence (P28074 60-263): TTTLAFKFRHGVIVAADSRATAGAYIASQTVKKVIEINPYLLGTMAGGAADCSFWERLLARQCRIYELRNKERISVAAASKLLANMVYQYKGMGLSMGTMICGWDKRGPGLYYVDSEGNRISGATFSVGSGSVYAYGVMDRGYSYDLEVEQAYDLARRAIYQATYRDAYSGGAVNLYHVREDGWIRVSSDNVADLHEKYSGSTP
Assay: Proteasome inhibitory activity (Suc-LLVY-amc) in RPMI 8226 cell lysate
Type: biochemical
Conditions: 26S proteasome in RPMI 8226 cell lysate, 30 min preincubation, Suc-LLVY-amc 100 µM, mean ± SD, n = 3; read-out: IC50 Value PI Activity
In this section, each of the compounds is paired with its reported IC50.
Numbers only; they are read as nM.

>  <COMPOUND>
CC(C)C[C@H](NC(=O)[C@@H](Cc1ccccc1)NC(=O)c1ccc(C(=O)Nc2ccccc2N)cc1)B1OC2CC3CC(C3(C)C)[C@]2(C)O1 (stereo partly drawn) [Compound 2]

>  <IC50 (nM)>
9.5

$$$$

Tell us which IC50 value is on record for CC(C)CC(NC(=O)C(Cc1ccccc1)NC(=O)CCC(=O)NCc1ccc(C(=O)Nc2ccccc2N)cc1)B1OC2CC3CC(C3(C)C)C2(C)O1 (stereo not drawn) [Compound 1] 10.3
